Tested on: RXF 393 renal
ASSAY_EXPLANATION: NCI-60 one-dose screen, 48 h
CONDITIONS: 10 µM unless noted
This is part of a sample that, as a whole, favours compounds with a hit. Of some 83,000 tested, about 20% had one in any assay. Calls of active or inactive are those of the source. The calls were made as follows: active = growth percent below 10; inactive = the rest.
Labels: 1 (active), 0 (inactive)

| SMILES_REPRESENTATION | CLASS |
| --- | --- |
| O=C(CCc1nnc(Cn2cnc3nc[nH]c3c2=O)o1)c1nc2ncccc2[nH]1 | 0 |
| CCN(c1ccc(Cl)cc1)c1nc(-c2ccc([N+](=O)[O-])cc2)cs1 | 0 |
| CCOC(=O)c1c(C)c2c(n1C)CSc1cc(C(=O)c3ccccc3)c(=O)[nH]c1-2 | 0 |
| O=C(O)[C@@H]1c2ccccc2-c2ccccc2[C@H]1C(=O)O | 0 |
| O=C1c2c(c3c4ccc(Br)cc4oc3c3[nH]c4ccccc4c23)C(=O)N1O | 0 |
| CNC(=O)c1cc(Oc2ccc3nc(NC(C)=O)sc3c2)ccn1 | 0 |
| COc1cccc(/C=C/C(=O)c2cc3c(N)c(C(=O)Nc4ccccc4)sc3nc2C)c1 | 1 |
| COc1ccc(-c2csc(N(C(=O)N3CCN(c4cc5c(cc4F)c(=O)c(C(=O)O)cn5C4CC4)CC3)c3ccccc3)n2)cc1 | 0 |
| O=C(Cn1c(=O)sc2nc3ccccc3nc21)Nc1ncc(Cc2cccc(Cl)c2Cl)s1 | 0 |

Ref: PubChem BioAssay (NCI)
